- systemName: T1, SCRIB PDZ domain 1 (human, UniProt Q14160 728-815)
- T1 construct: also called SCRIB-1
- T1 sequence (Q14160 728-815): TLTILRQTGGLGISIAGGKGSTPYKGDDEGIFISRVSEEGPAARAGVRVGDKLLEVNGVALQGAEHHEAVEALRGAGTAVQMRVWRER
- assayDetails: ELISA; competition ELISA as described in ref. 20: synthetic peptide in solution blocks PDZ domain binding to immobilized peptide; IC50 = peptide concentration that blocked 50% of binding; no detectable interaction = IC50 > 500 μM
- testSettings: both partners purified
pIC50: −log10 of the molar value. Where no end group is shown, it is not given here.

binder	pIC50
RQIKIWFQNRRMKWKKRSWFEAWA (not fully specified (C-terminus)) [designed nonbinding peptide Π–RSWFEAWA (peptide 15)]	< 3.30
